Recorded values, source paper PMC2951365.

- TARGET OF ASSAY: T1, ubiquitin (Ub) (UniProt P0CG48 1-76)
- T1 construct: ubiquitin, the mature 76-residue product of the polyubiquitin precursor; Used 15N-labelled or unlabelled; also called monoUb; 15N-labeled Ub; source: E. coli (pET-3a-Ub), purified (acetic acid denaturation, SP XL column, Superdex-75)
- ASSAY PROCEDURE: NMR titration; 15N-Ub (~0.2 mM) titrated with increasing amount of GB1-tagged UIM peptides; 1H-15N HSQC; 20 mM phosphate, 100 mM NaCl, pH 6.5, 25°C; apparent KD from I13, K48 and L71 of Ub; for AT3-UIM12 a simplified 1:2 fit with the two UIM motifs binding Ub equally
- COND: both partners purified
pKd: −log10 of the molar value.

BINDER	pKd
SEEDMLQAAVTMSLETVRND (domain or fragment, GB1 carrier and C-terminal His6 left out. The template's polyQ length is not printed. The printed limits are applied to the 361-aa UIM3-containing form, where they span the whole UIM3 and correspond …) [GB1-fused AT3-UIM3 (residues 335-354)]	< 2.52
